Target: T1, human TL1A extracellular domain with N-terminal HIS and FLAG tag (human, UniProt O95150 72-251)
T1 construct: the whole entry is named
T1 sequence: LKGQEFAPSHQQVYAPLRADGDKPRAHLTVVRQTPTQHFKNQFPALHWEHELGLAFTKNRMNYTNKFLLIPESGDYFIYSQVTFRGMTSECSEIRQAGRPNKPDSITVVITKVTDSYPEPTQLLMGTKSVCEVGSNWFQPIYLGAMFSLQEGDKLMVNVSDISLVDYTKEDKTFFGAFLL
Test: SPR Run 5, Ab from supernatant captured on Protein A, TL1A 5 ug/mL, timepoint 44
valueKind: TL1A Binding Level (Early) (RU)
Numbers only here, please. The scale is RU.

Give the measured TL1A Binding Level (Early) of 320-408 (antibody, human IgG1, name in Kabat numbering, V domains shown, human IgG1, lambda) VH: QVQLVQSGAEVKKPGASVKVSCKASGYHFTSYDINWVRQAPGQGLEWMGWLNPNSGNTGYAQKFQGRVTMTADRSTSTAYMELSSLRSEDTAVYYCAREVPETAAFEYWGQGTLVTVSS VL: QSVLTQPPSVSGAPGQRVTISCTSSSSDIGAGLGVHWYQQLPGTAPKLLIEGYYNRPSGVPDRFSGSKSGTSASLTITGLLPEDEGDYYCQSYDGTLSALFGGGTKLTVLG .
13

Same for 320-402 (antibody, human IgG1, name in Kabat numbering, V domains shown, human IgG1, lambda) VH: QVQLVQSGAEVKKPGASVKVSCKASGLTFTSYDINWVRQAPGQGLEWMGWLNPNSGNTGYAQKFQGRVTMTADRSTSTAYMELSSLRSEDTAVYYCAREVPETAAFEYWGQGTLVTVSS VL: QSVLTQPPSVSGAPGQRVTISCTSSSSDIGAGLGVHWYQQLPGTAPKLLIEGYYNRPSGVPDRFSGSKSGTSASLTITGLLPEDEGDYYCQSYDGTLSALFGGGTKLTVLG
11

Same for 320-373 (antibody, human IgG1, name in Kabat numbering, V domains shown, human IgG1, lambda) VH: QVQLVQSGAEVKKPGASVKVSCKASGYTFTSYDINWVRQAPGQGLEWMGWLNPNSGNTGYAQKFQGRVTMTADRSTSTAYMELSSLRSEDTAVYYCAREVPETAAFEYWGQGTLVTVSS VL: QSVLTQPPSVSGAPGQRVTISCTSSSSDIGAGLGVHWYQQLPGTAPKLLIEGYYNRPSGVPDRFSGSKSGTSASLTITGLLPEDEGDYYCQSYDGTLSQLFGGGTKLTVLG
-1

Same for 320-427 (antibody, human IgG1, name in Kabat numbering, V domains shown, human IgG1, lambda) VH: QVQLVQSGAEVKKPGASVKVSCKASGYTFKSYDINWVRQAPGQGLEWMGWLNPNSGNTGYAQKFQGRVTMTADRSTSTAYMELSSLRSEDTAVYYCAREVPETAAFEYWGQGTLVTVSS VL: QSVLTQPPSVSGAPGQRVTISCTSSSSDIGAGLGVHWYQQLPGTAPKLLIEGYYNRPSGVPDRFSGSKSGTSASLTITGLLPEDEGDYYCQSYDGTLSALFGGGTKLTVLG
11

Same for 320-413 (antibody, human IgG1, name in Kabat numbering, V domains shown, human IgG1, lambda) VH: QVQLVQSGAEVKKPGASVKVSCKASGYTATSYDINWVRQAPGQGLEWMGWLNPNSGNTGYAQKFQGRVTMTADRSTSTAYMELSSLRSEDTAVYYCAREVPETAAFEYWGQGTLVTVSS VL: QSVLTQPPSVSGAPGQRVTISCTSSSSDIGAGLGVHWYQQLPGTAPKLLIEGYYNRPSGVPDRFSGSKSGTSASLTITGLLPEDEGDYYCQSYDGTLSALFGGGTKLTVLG
9

Same for 320-387 (antibody, human IgG1, name in Kabat numbering, V domains shown, human IgG1, lambda) VH: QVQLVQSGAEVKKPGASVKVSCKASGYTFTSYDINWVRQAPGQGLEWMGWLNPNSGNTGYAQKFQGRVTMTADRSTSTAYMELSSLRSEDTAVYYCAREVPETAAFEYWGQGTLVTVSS VL: QSVLTQPPSVSGAPGQRVTISCTSSSSDIGAGLGVHWYQQLPGTAPKLLIEGYYNRPSGVPDRFSGSKSGTSASLTITGLLPEDEGDYYCQSYDGTLSAYFGGGTKLTVLG
11

Same for 320-391 (antibody, human IgG1, name in Kabat numbering, V domains shown, human IgG1, lambda) VH: QVQLVQSGAEVKKPGASVKVSCKASDYTFTSYDINWVRQAPGQGLEWMGWLNPNSGNTGYAQKFQGRVTMTADRSTSTAYMELSSLRSEDTAVYYCAREVPETAAFEYWGQGTLVTVSS VL: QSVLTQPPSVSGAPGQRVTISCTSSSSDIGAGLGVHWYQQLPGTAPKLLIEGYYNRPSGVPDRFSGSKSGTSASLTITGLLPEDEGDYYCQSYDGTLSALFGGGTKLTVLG
14

Same for 320-411 (antibody, human IgG1, name in Kabat numbering, V domains shown, human IgG1, lambda) VH: QVQLVQSGAEVKKPGASVKVSCKASGYWFTSYDINWVRQAPGQGLEWMGWLNPNSGNTGYAQKFQGRVTMTADRSTSTAYMELSSLRSEDTAVYYCAREVPETAAFEYWGQGTLVTVSS VL: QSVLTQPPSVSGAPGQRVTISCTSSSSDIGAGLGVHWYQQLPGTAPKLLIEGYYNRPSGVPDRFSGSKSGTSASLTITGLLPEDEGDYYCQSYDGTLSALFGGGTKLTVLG
10

Same for 320-399 (antibody, human IgG1, name in Kabat numbering, V domains shown, human IgG1, lambda) VH: QVQLVQSGAEVKKPGASVKVSCKASGQTFTSYDINWVRQAPGQGLEWMGWLNPNSGNTGYAQKFQGRVTMTADRSTSTAYMELSSLRSEDTAVYYCAREVPETAAFEYWGQGTLVTVSS VL: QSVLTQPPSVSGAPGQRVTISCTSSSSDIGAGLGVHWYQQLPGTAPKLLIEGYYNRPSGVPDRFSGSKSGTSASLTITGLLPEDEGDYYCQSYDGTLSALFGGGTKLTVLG
10

Same for 320-426 (antibody, human IgG1, name in Kabat numbering, V domains shown, human IgG1, lambda) VH: QVQLVQSGAEVKKPGASVKVSCKASGYTFHSYDINWVRQAPGQGLEWMGWLNPNSGNTGYAQKFQGRVTMTADRSTSTAYMELSSLRSEDTAVYYCAREVPETAAFEYWGQGTLVTVSS VL: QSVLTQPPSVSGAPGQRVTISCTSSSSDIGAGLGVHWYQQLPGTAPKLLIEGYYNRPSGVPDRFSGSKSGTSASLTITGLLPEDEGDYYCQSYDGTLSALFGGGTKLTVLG
10
